Recorded Phage binding ELISA signal, Anti-PSMA Fab with PSMA antigen for the following binders
# system-tested: T1, PSMA Fab
# T1 construct: Biotinylated and captured on neutravidin coated plates in the phage ELISA; also called Anti-PSMA Fab; 006 PSMA Fab
# assay-method-text: clonal phage ELISA on captured PSMA Fab pre-incubated with PSMA antigen as competitor, anti-M13 HRP detection;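 also: crude clonal phage supernatants tested by ELISA, wells first treated with blocking buffer plus PSMA antigen, bound phage read out via HRP-linked anti-M13 antibody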
Where no end group is shown, it is not given here.
measured-endpoint: Phage binding ELISA signal, Anti-PSMA Fab with PSMA antigen

{"binder": "IETWCVPRWMCEGF [Phage-2864]", "observed-result": 0.234}
{"binder": "TSPACVPSWMCVGF [Phage-2866]", "observed-result": 0.071}
{"binder": "IDILCRPLWMCNGM [Phage-2872]", "observed-result": 0.113}
{"binder": "LERVCKPLWMCTGL [Phage-2871]", "observed-result": 0.134}
{"binder": "ETLRCEPMWMCMGF [Phage-2874]", "observed-result": 0.0975}
{"binder": "SEFWCVPAWMCEGF [Phage-2870]", "observed-result": 0.0842}
{"binder": "WPQLCVPMWMCAGL [Phage-2869]", "observed-result": 0.148}
{"binder": "MSPLCKPVWMCAGF (cysteine pairing not given here; also: displayed on phage by fusion to pIII) [Phage-2865]", "observed-result": 0.0828}
{"binder": "TLSMCVPTWMCTGF [Phage-2877]", "observed-result": 0.115}
{"binder": "EPIRCVPQWMCVGF [Phage-2868]", "observed-result": 0.0918}
{"binder": "DDIRCKPAWMCMGF [Phage-2876]", "observed-result": 0.127}
{"binder": "SMPRCVPVWMCEGF [Phage-2875]", "observed-result": 0.107}
{"binder": "VLPMCSPPWMCIGL [Phage-2867]", "observed-result": 0.0912}
{"binder": "IIRHCVPMWMCQGF [Phage-2873]", "observed-result": 0.224}
